Please provide measured Decomposition efficiency of daidzin family in soymilk for the entries that follow.
test system: Crude diglycosidase; assay: Examination of temperature in the conversion into isoflavone aglycons by diglycosidase using soybean materials; assay type: biochemical, Penicillium multicolor IAM7153; design: concentration or dose not given beside the values; settings: 30 °C; heat treatment of enzyme: yes; 6 h
Give bare numbers, in %.

O=C(O)CC(=O)OC[C@H]1O[C@@H](Oc2ccc3c(=O)c(-c4ccc(O)cc4)coc3c2)[C@H](O)[C@@H](O)[C@@H]1O :: 56.1
O=c1c(-c2ccc(O)cc2)coc2cc(O)ccc12 :: 9.1

Note Decomposition efficiency of daidzin family in soymilk for the compound shown: O=c1c(-c2ccc(O)cc2)coc2cc(O[C@@H]3O[C@H](CO)[C@@H](O)[C@H](O)[C@H]3O)ccc12 34.8
